Measured values drawn from patent US12459951B2 for this set.

Biological target: Rac-1 (Homo sapiens)
Construct: made in house
Test: Ras GTP Binding Domain Inhibition Assay (Ras Superfamily Assay)
Conditions: read-out: Rac-1: % inh.
recorded_endpoint: inhibition at 20 µM

I'd like to know its inhibition at 20 µM. The molecule in question is Cc1c(-c2ccn(C)n2)cn2nc(-c3nccn3C)nc(Nc3cc(OC4CC4)ccn3)c12 [Compound 126]
26 to 49%

Moving on to the next molecule: Cc1c(-c2ccn(C)n2)cn2nc(-c3nccn3C)nc(Nc3cc4n(n3)CCO4)c12 [Compound 124]
76 to 100%

Try this molecule too: Cn1ccnc1-c1nc(O)c2c(-c3ccccc3)c(-c3cccnc3)cn2n1 [Compound 189]
1 to 25%

// repeat for CCOc1cc(Nc2nc(-c3nccn3C)nn3cc(-c4ccn(C)n4)c(C)c23)n[nH]1 [Compound 260] and report
50 to 75%

---

Test: Kinetic Solubility Assay in pH 7.4 Buffer + 2% DMSO
Assay type: physicochemical
Settings: phosphate-buffered saline pH 7.4 with 2% DMSO, aqueous buffer, kinetic from dmso stock, 25° C., two hours
recorded_endpoint: solubility at 2 h

// returns reported solubility at 2 h for input `COc1ccnc(Nc2nc(-c3nccn3C)nn3cc(-c4ccn(C(C)C)n4)c(C)c23)c1`
10 to 30 µM

Then this compound: `COc1ccnc(Nc2nc(-c3nccn3C)nn3cc(-c4ccn(C)n4)c(C)c23)c1`
> 30 µM

Same question for `COc1cc(Nc2nc(-c3nccn3C)nn3cc(-c4ccn(C)n4)c(C)c23)n[nH]1` please.
< 10 µM

Then `Cc1c(-c2ccn(C)n2)cn2nc(-c3nccn3C)nc(Nc3cc(N4CCOCC4)ccn3)c12` ?
10 to 30 µM

Check `Cc1c(-c2ccn(C)n2)cn2nc(-c3nccn3C)nc(Nc3cc(-c4ccccn4)ccn3)c12` too.
< 10 µM

Same question for `COc1ccc(Nc2nc(-c3nccn3C)nn3cc(-c4ccn(C)n4)c(C)c23)nc1` please.
< 10 µM

Okay, and `Cc1ccc(Nc2nc(-c3nccn3C)nn3cc(-c4ccn(C)n4)c(C)c23)nc1` ?
< 10 µM

Repeat with `Cc1ccnc(Nc2nc(-c3nccn3C)nn3cc(-c4ccn(C5CC5)n4)c(C)c23)c1`
< 10 µM

Further cases:
solubility at 2 h for `Cc1c(-c2ccn(C)n2)cn2nc(-c3nccn3C)nc(Nc3ccncn3)c12.Cl` ?
10 to 30 µM

Could you do the same for `Cc1c(-c2ccn(C(C)C)n2)cn2nc(-c3nccn3C)nc(Nc3nnco3)c12` , please?
< 10 µM

Do the same for `Cc1c(-c2ccn(C)n2)cn2nc(-c3nccn3C)nc(Nc3cc(-c4cccnc4)ccn3)c12` please
< 10 µM

Follow-up item: `Cc1c(-c2ccn(C)n2)cn2nc(-c3nccn3C)nc(Nc3cc4n(n3)CCC4)c12`
10 to 30 µM

Can you handle `COc1cc(Nc2nc(-c3nccn3C)nn3cc(-c4ccn(C)n4)c(C)c23)ncc1C` next?
< 10 µM

Lookup `COc1cc(Nc2nc(-c3nccn3C)nn3cc(-c4ccn(C)n4)c(C)c23)ncc1C1CC1`
< 10 µM

Another compound to look at: `COc1ccnc(Nc2nc(-c3nccn3C)nn3cc(-c4cccnc4)c(C)c23)n1`
10 to 30 µM

Quick one: `Cc1c(-c2ccn(C3CC3)n2)cn2nc(-c3nccn3C)nc(Nc3cc(OC4CC4)ccn3)c12`
10 to 30 µM

---

System: KRas wild type
Assay: Ras GTP Binding Domain Inhibition Assay (Ras Superfamily Assay)
Settings: 20 μM compound, with SOS
recorded_endpoint: KRas wild type + SOS: % inh.

Examples from the recorded data:
Reported KRas wild type + SOS: % inh. for KRas wild type, given `Cc1c(-c2ccn(C)n2)cn2nc(-c3nccn3C)nc(Nc3cc(OC4CC4)ccn3)c12` ?
A (A = 1-25% inhibition)

Let us now turn to `Cc1c(-c2ccn(C(C)C)n2)cn2nc(-c3nccn3C)nc(Nc3nc(C4CC4)no3)c12`
0 (0 = 0% inhibition)

Proceed to `COCCNc1nc(-c2nccn2C)nn2cc(-c3ccn(C(C)C)n3)c(C(C)C)c12`
A (A = 1-25% inhibition)

What about `COc1cccc(Nc2nc(-c3nccn3C)nn3ccc(-c4ccccc4)c23)n1` ?
0 (0 = 0% inhibition)

Attention now shifts to the item below.
Under KRas wild type: KRas wild type + SOS: % inh. value of COC[C@@H]1CC[C@@H]1CNc1nc(-c2nccn2C)nn2cc(-c3ccn(C(C)C)n3)c(-c3ccccc3)c12 (racemic) ?
A (A = 1-25% inhibition)

---

System: KRas Q61H mutant
Test: Ras GTP Binding Domain Inhibition Assay (Ras Superfamily Assay)
Settings: 20 μM compound, with SOS
recorded_endpoint: KRas Q61H mutant + SOS: % inh.

# example entries with known answers
Using the record for COCCNc1nc(-c2nccn2C)nn2cc(-c3cccc(OC)c3Cl)c(-c3ccccc3)c12 [Compound 29] , report its KRas Q61H mutant + SOS: % inh..
0 (0 = 0% inhibition)

Another compound: COCCNc1nc(-c2nccn2C)nn2cc(-c3cccc(OC)c3Cl)c(C)c12 [Compound 16]
0 (0 = 0% inhibition)

Here is the next compound: COC1CCCN(c2nc(-c3nccn3C)nn3cc(-c4ccn(C(C)C)n4)c(-c4ccccc4)c23)C1 (racemic) [Compound 21]
A (A = 1-25% inhibition)

COC[C@@H]1CC[C@@H]1CNc1nc(-c2nccn2C)nn2cc(-c3ccn(C(C)C)n3)c(-c3ccccc3)c12 (racemic) [Compound 20] ?
0 (0 = 0% inhibition)

Moving on to another compound below.
Quick one: KRas Q61H mutant + SOS: % inh. for COc1cccc(-c2cn3nc(-c4nccn4C)nc(O)c3c2C)c1Cl [Compound 15] ?
A (A = 1-25% inhibition)

---

Tested on: KRas wild type
Assay: Ras GTP Binding Domain Inhibition Assay (Ras Superfamily Assay)
Conditions: 20 μM compound, without SOS
// KRas wild type: % inh. lookup, one value per entry

Sample CO[C@H]1CC[C@@H](Nc2nc(-c3ccccn3)nn3cc(-c4ccn(C(C)C)n4)c(C)c23)C1 (racemic) [Compound 9] — what was its KRas wild type: % inh.?
0 (0 = 0% inhibition)

Consider the record given below.
# lookup: KRas wild type: % inh. of COCCO[C@H]1C[C@H](Nc2nc(-c3nccn3C)nn3cc(-c4cccc(OC)c4F)c(-c4ccccc4)c23)C1 [Compound 44]
0 (0 = 0% inhibition)

---

Test system: KRas Q61H mutant
Assay: Ras GTP Binding Domain Inhibition Assay (Ras Superfamily Assay)
Conditions: 20 μM compound, with SOS
recorded_endpoint: KRas Q61H mutant + SOS: % inh.

KRas Q61H mutant + SOS: % inh. lookup needed for `COCCO[C@H]1C[C@H](Nc2nc(-c3nccn3C)nn3cc(-c4ccn(C(C)C)n4)c(C)c23)C1` , thanks.
A (A = 1-25% inhibition)

And for `COc1cccc(-c2cn3nc(-c4nccn4C)nc(N[C@H]4C[C@H](OC)C4)c3c2-c2ccccc2)c1Cl` ?
A (A = 1-25% inhibition)

Field entry: `Cc1ccn2nc(-c3nccn3C)nc(N)c12.O=C(O)C(F)(F)F`
0 (0 = 0% inhibition)

Try this molecule too: COC[C@@H]1CC[C@@H]1CNc1nc(-c2ccccn2)nn2cc(-c3ccn(C(C)C)n3)c(-c3ccccc3)c12 (racemic)
A (A = 1-25% inhibition)

Others:
Quick one: KRas Q61H mutant + SOS: % inh. of `COc1cccc(Nc2nc(-c3ccccn3)nn3cc(-c4ccn(C(C)C)n4)c(C)c23)n1` ?
0 (0 = 0% inhibition)

Next up: `Cc1c(-c2ccn(C(C)C)n2)cn2nc(-c3nccn3C)nc(Nc3nc(C4CC4)no3)c12`
0 (0 = 0% inhibition)

Query COc1cccc(-c2cn3nc(-c4nccn4C)nc(N[C@@H]4CC[C@H](OC)C4)c3c2-c2ccccc2)c1Cl (racemic) next
0 (0 = 0% inhibition)

Same thing, different molecule: CO[C@H]1CC[C@@H](Nc2nc(-c3ccccn3)nn3cc(-c4ccn(C(C)C)n4)c(-c4ccccc4)c23)C1 (racemic)
0 (0 = 0% inhibition)

Would you kindly repeat that for `COc1cc(Nc2nc(-c3nccn3C)nn3cc(-c4ccn(C(C)C)n4)c(-c4ccccc4)c23)ncn1` ?
A (A = 1-25% inhibition)

Moving on to `COc1cccc(-c2cn3nc(-c4nccn4C)nc(N[C@H]4C[C@@H](OC)C4)c3c2-c2ccccc2)c1Cl`
A (A = 1-25% inhibition)

Next up: `Cn1ccnc1-c1nc(O)c2c(-c3ccccc3)ccn2n1`
0 (0 = 0% inhibition)

Check `Cc1c(-c2ccn(C(C)C)n2)cn2nc(-c3nccn3C)nc(Nc3cnccn3)c12` too.
A (A = 1-25% inhibition)

// query: COC1CCCN(c2nc(-c3ccccn3)nn3cc(-c4ccn(C(C)C)n4)c(-c4ccccc4)c23)C1 (racemic)
0 (0 = 0% inhibition)

Note, next up: COC[C@@H]1CC[C@@H]1CNc1nc(-c2nccn2C)nn2cc(-c3ccn(C(C)C)n3)c(C)c12 (racemic)
0 (0 = 0% inhibition)

Try this molecule next: `COc1ccc(Nc2nc(-c3nccn3C)nn3cc(-c4ccn(C(C)C)n4)c(C)c23)cn1`
0 (0 = 0% inhibition)

Please give the result for COCC1CCN(c2nc(-c3nccn3C)nn3cc(-c4ccn(C(C)C)n4)c(C)c23)C1 (racemic) too.
0 (0 = 0% inhibition)

Note, next up: `COCCCNc1nc(-c2nccn2C)nn2cc(-c3cccc(OC)c3Cl)c(-c3ccccc3)c12`
0 (0 = 0% inhibition)

Repeat with COC1CCCN(c2nc(-c3ccccn3)nn3cc(-c4ccn(C(C)C)n4)c(C)c23)C1 (racemic)
0 (0 = 0% inhibition)
